# credit: patent US9976134B2

assay: Stability assay in 25% TIDE 2X detergent with DTPA (residual Abz-AGLA-Nba protease activity); format: physicochemical; details: 60 min at 32°C; variant residual AGLA activity divided by wild-type residual activity
A collection of molecules and their measured PI (relative stability), 25% TIDE 2X with DTPA
REPORTED METRIC: PI (relative stability), 25% TIDE 2X with DTPA

MOLECULE	OBSERVED RESULT
Y151M: single-substitution thermolysin variant (SEQ ID NO:3 numbering) (protein, listed as Geobacillus caldoproteolyticus) ITGTSTVGVGRGVLGDQKNINTTYSTYYYLQDNTRGNGIFTYDAKYRTTLPGSLWADADNQFFASYDAPAVDAHYYAGVTYDYYKNVHNRLSYDGNNAAIRSSVHYSQGYNNAFWNGSQMVYGDGDGQTFIPLSGGIDVVAHELTHAVTDMTAGLIYQNESGAINEAISDIFGTLVEFYANKNPDWEIGEDVYTPGISGDSLRSMSDPAKYGDPDHYSKRYTGTQDNGGVHINSGIINKAAYLISQGGTHYGVSVVGIGRDKLGKIFYRALTQYLTPTSNFSQLRAAAVQSATDLYGSTSQEVASVKQAFDAVGVK	1.09
N280E: single-substitution thermolysin variant (SEQ ID NO:3 numbering) (protein, listed as Geobacillus caldoproteolyticus) ITGTSTVGVGRGVLGDQKNINTTYSTYYYLQDNTRGNGIFTYDAKYRTTLPGSLWADADNQFFASYDAPAVDAHYYAGVTYDYYKNVHNRLSYDGNNAAIRSSVHYSQGYNNAFWNGSQMVYGDGDGQTFIPLSGGIDVVAHELTHAVTDYTAGLIYQNESGAINEAISDIFGTLVEFYANKNPDWEIGEDVYTPGISGDSLRSMSDPAKYGDPDHYSKRYTGTQDNGGVHINSGIINKAAYLISQGGTHYGVSVVGIGRDKLGKIFYRALTQYLTPTSEFSQLRAAAVQSATDLYGSTSQEVASVKQAFDAVGVK	1.13
